Molecular target: T1, recombinant human TL1A (human, UniProt O95150 71-251)
T1 construct: The ELISA method says only 'recombinant TL1A' coated on plates; homotrimeric cytokine; also called TNFSF15; recombinant TL1A
T1 chain: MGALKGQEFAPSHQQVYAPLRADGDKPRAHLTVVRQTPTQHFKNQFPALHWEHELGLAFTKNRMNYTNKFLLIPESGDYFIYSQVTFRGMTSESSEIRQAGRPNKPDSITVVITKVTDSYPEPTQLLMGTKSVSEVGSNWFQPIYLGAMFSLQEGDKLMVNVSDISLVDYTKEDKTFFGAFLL
Assay: competition ELISA on coated recombinant TL1A; competitor biotinylated TL1A-0002
ENDPOINT_NAME: IC50
Include the unit right after the number.

// solved cases for IC50 follow
TL1A-0258 (antibody, human IgG1, kappa, V domains shown, human IgG1 effector-function-minimized / human kappa) VH: QVQLVQSGAEVKKPGASVKVSCKASGYDYTYYGISWVRQAPGQGLEWMGWISTYNDNTHYAQKLQGRVTMTTDTSTSTAYMELRSLRSDDTAVYYCARESYYGSGAFRGGMDVWGQGTTVTVSS VL: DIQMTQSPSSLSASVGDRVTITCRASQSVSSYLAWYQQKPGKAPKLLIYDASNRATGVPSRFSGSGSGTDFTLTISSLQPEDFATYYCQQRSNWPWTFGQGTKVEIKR    10.9 nM
TL1A-0283 (antibody, V domains shown, IgG1 effector-minimized/kappa) VH: QVQLVQSGAEVKKPGASVKVSCKASGYDFSYYGISWVRQAPGQGLEWMGWISTYGGNTHYAPSLQGRVTMTTDTSTSTAYMELRSLRSDDTAVYYCARESYYGSGAHRGGMDVWGQGTTVTVSS VL: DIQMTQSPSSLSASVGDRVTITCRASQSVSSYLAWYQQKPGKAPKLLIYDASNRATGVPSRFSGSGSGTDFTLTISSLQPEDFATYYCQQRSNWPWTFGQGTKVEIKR    246 nM

-- ask Recorded IC50 of TL1A-0299 (antibody, V domains shown, IgG1 effector-minimized/kappa) VH: QVQLVQSGAEVKKPGASVKVSCKASGYDFTYYGIGWVRQAPGQGLEWMGWISTYNDNTHYAPSLQGRVTMTTDTSTSTAYMELRSLRSDDTAVYYCARESYYGSGAHRGGMDVWGQGTTVTVSS VL: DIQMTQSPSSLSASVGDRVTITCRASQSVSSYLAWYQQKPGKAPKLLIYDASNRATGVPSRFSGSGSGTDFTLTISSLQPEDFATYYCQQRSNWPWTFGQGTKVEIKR , please.
-- reply 22.9 nM

-- ask What value of IC50 has been reported for the following binder? TL1A-0274 (antibody, human IgG1, kappa, V domains shown, human IgG1 effector-function-minimized / human kappa) VH: QVQLVQSGAEVKKPGASVKVSCKASGYDFSYYGISWVRQAPGQGLEWMGWISTYNTGTHYAPSLQGRVTMTTDTSTSTAYMELRSLRSDDTAVYYCARESYYGSGAFRGGMDVWGQGTTVTVSS VL: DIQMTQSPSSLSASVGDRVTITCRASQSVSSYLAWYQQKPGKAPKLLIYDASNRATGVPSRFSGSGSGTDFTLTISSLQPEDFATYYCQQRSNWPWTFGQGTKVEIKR
-- reply 10.1 nM

-- ask Value lookup for IC50; key = TL1A-0305 (antibody, human IgG1, kappa, V domains shown, human IgG1 effector-function-minimized / human kappa) VH: QVQLVQSGAEVKKPGASVKVSCKASGYDFTYYGIGWVRQAPGQGLEWMGWISTYNTGTHYAQKLQGRVTMTTDTSTSTAYMELRSLRSDDTAVYYCARESYYGSGAHRGGMDVWGQGTTVTVSS VL: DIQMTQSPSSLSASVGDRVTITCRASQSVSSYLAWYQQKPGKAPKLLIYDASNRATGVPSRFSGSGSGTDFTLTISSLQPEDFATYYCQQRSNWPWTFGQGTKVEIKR
-- reply 14.5 nM

-- ask Entry TL1A-0263 (antibody, human IgG1, kappa, V domains shown, human IgG1 effector-function-minimized / human kappa) VH: QVQLVQSGAEVKKPGASVKVSCKASGYDYTYYGISWVRQAPGQGLEWMGWISTYNTGTHYAQKLQGRVTMTTDTSTSTAYMELRSLRSDDTAVYYCARESYYGSGAHRGGMDVWGQGTTVTVSS VL: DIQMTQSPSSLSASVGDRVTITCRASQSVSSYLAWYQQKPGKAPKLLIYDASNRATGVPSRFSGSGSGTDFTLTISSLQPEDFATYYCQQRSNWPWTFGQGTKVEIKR has what IC50?
-- reply 6.2 nM

-- ask Sample TL1A-0324 (antibody, human IgG1, kappa, V domains shown, human IgG1 effector-function-minimized / human kappa) VH: QVQLVQSGAEVKKPGASVKVSCKASGYDFTYYGISWVRQAPGQGLEWMGWISTYNTNTHYARMLQGRVTMTTDTSTSTAYMELRSLRSDDTAVYYCARESYYGSGAYRGGMDVWGQGTTVTVSS VL: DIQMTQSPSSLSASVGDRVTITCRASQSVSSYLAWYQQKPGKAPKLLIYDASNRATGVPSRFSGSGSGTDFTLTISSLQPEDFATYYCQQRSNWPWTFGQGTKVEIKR — what was its IC50?
-- reply 6.1 nM

-- ask Fill in: IC50 of TL1A-0306 (antibody, human IgG1, kappa, V domains shown, human IgG1 effector-function-minimized / human kappa) VH: QVQLVQSGAEVKKPGASVKVSCKASGYDFTYYGIGWVRQAPGQGLEWMGWISTYNTVTHYAPSLQGRVTMTTDTSTSTAYMELRSLRSDDTAVYYCARESYYGSGAFRGGMDVWGQGTTVTVSS VL: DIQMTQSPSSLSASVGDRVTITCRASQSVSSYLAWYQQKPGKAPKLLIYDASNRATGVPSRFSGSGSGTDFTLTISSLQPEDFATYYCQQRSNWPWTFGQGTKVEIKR is ___
-- reply 15.8 nM

-- ask Endpoint output: IC50 of TL1A-0294 (antibody, human IgG1, kappa, V domains shown, human IgG1 effector-function-minimized / human kappa) VH: QVQLVQSGAEVKKPGASVKVSCKASGYDFTYYGVSWVRQAPGQGLEWMGWISTYNTNTHYAPSLQGRVTMTTDTSTSTAYMELRSLRSDDTAVYYCARESYYGSGAFRGGMDVWGQGTTVTVSS VL: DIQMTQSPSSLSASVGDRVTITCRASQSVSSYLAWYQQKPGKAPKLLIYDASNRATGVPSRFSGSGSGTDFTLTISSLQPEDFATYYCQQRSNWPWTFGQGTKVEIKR . Value?
-- reply 8 nM
